System: Puccinia triticina
Experiment: Wheat Brown Rust fungicidal activity (PUCCRT)
Type: in vivo
Conditions: Puccinia triticina, 72 h, 3 Day Curative, rate 121.5 g/H, read-out: Disease control PUCCRT 3DC
Entries and their measured pest or weed control at 121.5 g/ha follow.

>>> reported("COc1ccnc(C(=O)N[C@H]2COC[C@H](CCc3ccccc3)[C@@H](OCCCC(F)(F)F)[C@H](C)OC2=O)c1OC(C)=O")
"0 to 80%"

# input // lookup pest or weed control at 121.5 g/ha for COc1ccnc(C(=O)N[C@H]2COC[C@H](Cc3ccc(C(F)(F)F)cc3)[C@@H](OC3CCCC3)[C@H](C)OC2=O)c1OCOC(C)=O
# output 0 to 80%

# input // lookup pest or weed control at 121.5 g/ha for COc1ccnc(C(=O)N[C@H]2COC[C@H](CCC(C)C)[C@@H](OC(=O)C3CC3)[C@H](C)OC2=O)c1OCOC(C)=O
# output 80 to 100%

# input // lookup pest or weed control at 121.5 g/ha for COc1ccnc(C(=O)N[C@H]2COC[C@H](CC3CCCC3)[C@@H](OCC(C)C)[C@H](C)OC2=O)c1OCOC(C)=O
# output 80 to 100%

---

System: Puccinia triticina
Test: Wheat Brown Rust fungicidal activity (PUCCRT)
Format: in vivo
Conditions: Puccinia triticina, 72 h, 3 Day Curative, rate 121.5 g/H, read-out: Disease control PUCCRT 3DC
Entries and their measured pest or weed control at 121.5 g/ha follow.

>>> reported("COc1ccnc(C(=O)N[C@H]2COC[C@H](Cc3ccc(C)cc3)[C@@H](OC(=O)C3CC3)[C@H](C)OC2=O)c1OCOC(C)=O")
"80 to 100%"

# input // lookup pest or weed control at 121.5 g/ha for CCCCCO[C@@H]1[C@@H](CC2CCCC2)COC[C@H](NC(=O)c2nccc(OC)c2OC(C)=O)C(=O)O[C@H]1C
# output 0 to 80%

# input // lookup pest or weed control at 121.5 g/ha for COc1ccnc(C(=O)N[C@H]2COC[C@H](Cc3ccc(C)cc3)[C@@H](OC(=O)C3CC3)[C@H](C)OC2=O)c1OC(C)=O
# output 0 to 80%

---

Test system: Puccinia triticina
Experiment: Wheat Brown Rust fungicidal activity (PUCCRT)
Assay type: in vivo
Conditions: Puccinia triticina, 24 h, 1 Day Protectant, rate 100 ppm, read-out: Disease control PUCCRT 1DP
Reported Endpoint: pest or weed control at 100 ppm

Answered examples (4):
>>> reported("COc1ccnc(C(=O)N[C@H]2COC[C@H](Cc3ccc(C)cc3)[C@@H](Oc3ccccc3)[C@H](C)OC2=O)c1O [Compound F24]")
"80 to 100%"
>>> reported("COc1ccnc(C(=O)N[C@H]2COC[C@H](Cc3ccc(C(F)(F)F)cc3)[C@@H](OC3CCCC3)[C@H](C)OC2=O)c1OCOC(C)=O [Compound F100]")
"80 to 100%"
>>> reported("COc1ccnc(C(=O)N[C@H]2COC[C@H](CC(F)(F)F)[C@@H](OCC(C)C)[C@H](C)OC2=O)c1O [Compound F32]")
"80 to 100%"
>>> reported("COc1ccnc(C(=O)N[C@H]2COC[C@H](CCc3ccccc3)[C@@H](OC(=O)C3CC3)[C@H](C)OC2=O)c1OC(C)=O [Compound F57]")
"80 to 100%"

# input // lookup pest or weed control at 100 ppm for COc1ccnc(C(=O)N[C@H]2COC[C@H](Cc3cc(F)c(F)c(F)c3)[C@@H](OCC(C)C)[C@H](C)OC2=O)c1O [Compound F40]
# output 0 to 80%

# input // lookup pest or weed control at 100 ppm for COc1ccnc(C(=O)N[C@H]2COC[C@H](Cc3cccc4ccccc34)[C@@H](OC(=O)C(C)C)[C@H](C)OC2=O)c1OCOC(C)=O [Compound F83]
# output 80 to 100%

# input // lookup pest or weed control at 100 ppm for COc1ccnc(C(=O)N[C@H]2COC[C@H](CC3CCCC3)[C@@H](OC(=O)C(C)C)[C@H](C)OC2=O)c1OCOC(C)=O [Compound F114]
# output 80 to 100%

# input // lookup pest or weed control at 100 ppm for COc1ccnc(C(=O)N[C@H]2COC[C@H](Cc3ccc(C)cc3)[C@@H](OC(=O)C3CC3)[C@H](C)OC2=O)c1O [Compound F22]
# output 0 to 80%

# input // lookup pest or weed control at 100 ppm for COc1ccnc(C(=O)N[C@H]2COC[C@H](Cc3ccc(F)cc3)[C@@H](OCCCC(F)(F)F)[C@H](C)OC2=O)c1O [Compound F17]
# output 80 to 100%

# input // lookup pest or weed control at 100 ppm for CCCCCO[C@@H]1[C@@H](Cc2ccc(F)cc2)COC[C@H](NC(=O)c2nccc(OC)c2O)C(=O)O[C@H]1C [Compound F19]
# output 80 to 100%

# input // lookup pest or weed control at 100 ppm for CCCCCO[C@@H]1[C@@H](Cc2ccc(Cl)cc2Cl)COC[C@H](NC(=O)c2nccc(OC)c2O)C(=O)O[C@H]1C [Compound F43]
# output 0 to 80%

# input // lookup pest or weed control at 100 ppm for COc1ccnc(C(=O)N[C@H]2COC[C@H](Cc3cccc4ccccc34)[C@@H](Oc3ccc(C)cc3)[C@H](C)OC2=O)c1O [Compound F8]
# output 80 to 100%

# input // lookup pest or weed control at 100 ppm for COc1ccnc(C(=O)N[C@H]2COC[C@H](CCc3ccccc3)[C@@H](OCC(C)C)[C@H](C)OC2=O)c1OCOC(C)=O [Compound F82]
# output 80 to 100%
